- measurementProtocol: Clearance in Balb/c mouse plasma at 3 mg/kg, iv by LC-MS/MS analysis
- Format: ADME, organism-based
- Design: dose 3 mg/kg, route intravenous
propertyName: clearance (mL/min/kg)
Kindly answer with a numeric value in mL/min/kg, unit omitted.

query: Fill in: clearance of `C[C@H]1Cc2ccccc2N1C(=O)Cc1nc(N2CCOCC2)cc(=O)[nH]1` is ___
result: 83.3

* * *

- measurementProtocol: AUC (infinity) in Beagle dog at 10 mg/kg, po
- Type: ADME, organism-based, Canis lupus familiaris
- Parameters: time infinity, dose 10 mg/kg, route oral
- protocolConditions: plasma
propertyName: AUC(0-inf)
Answer by giving the amount and then stating its unit.

query: Field request: AUC(0-inf) | item: `C[C@H]1Cc2ccccc2N1C(=O)Cc1nc(N2CCOCC2)cc(=O)[nH]1`
result: 14000 ng·h/mL

* * *

- measurementProtocol: Oral bioavailability in Beagle dog at 10 mg/kg
- Assay type: ADME, organism-based, Canis lupus familiaris
- protocolConditions: in vivo
propertyName: bioavailability (%)
Kindly answer with a numeric value in %, unit omitted.

query: Quick one: bioavailability of `C[C@H]1Cc2ccccc2N1C(=O)Cc1nc(N2CCOCC2)cc(=O)[nH]1` ?
result: 67

* * *

- measurementProtocol: Plasma concentration in Balb/c mouse at 100 mg/kg, po measured for 12 hrs
- Assay type: ADME, organism-based
- Set-up: dose 100 mg/kg, route oral
propertyName: concentration at 12 h

query: Fill in: concentration at 12 h of `C[C@H]1Cc2ccccc2N1C(=O)Cc1nc(N2CCOCC2)cc(=O)[nH]1` is ___
result: > 100 nM

* * *

- target: Phosphatidylinositol 4,5-bisphosphate 3-kinase catalytic subunit beta isoform (Homo sapiens)
- Sequence (P42338 whole entry, canonical isoform): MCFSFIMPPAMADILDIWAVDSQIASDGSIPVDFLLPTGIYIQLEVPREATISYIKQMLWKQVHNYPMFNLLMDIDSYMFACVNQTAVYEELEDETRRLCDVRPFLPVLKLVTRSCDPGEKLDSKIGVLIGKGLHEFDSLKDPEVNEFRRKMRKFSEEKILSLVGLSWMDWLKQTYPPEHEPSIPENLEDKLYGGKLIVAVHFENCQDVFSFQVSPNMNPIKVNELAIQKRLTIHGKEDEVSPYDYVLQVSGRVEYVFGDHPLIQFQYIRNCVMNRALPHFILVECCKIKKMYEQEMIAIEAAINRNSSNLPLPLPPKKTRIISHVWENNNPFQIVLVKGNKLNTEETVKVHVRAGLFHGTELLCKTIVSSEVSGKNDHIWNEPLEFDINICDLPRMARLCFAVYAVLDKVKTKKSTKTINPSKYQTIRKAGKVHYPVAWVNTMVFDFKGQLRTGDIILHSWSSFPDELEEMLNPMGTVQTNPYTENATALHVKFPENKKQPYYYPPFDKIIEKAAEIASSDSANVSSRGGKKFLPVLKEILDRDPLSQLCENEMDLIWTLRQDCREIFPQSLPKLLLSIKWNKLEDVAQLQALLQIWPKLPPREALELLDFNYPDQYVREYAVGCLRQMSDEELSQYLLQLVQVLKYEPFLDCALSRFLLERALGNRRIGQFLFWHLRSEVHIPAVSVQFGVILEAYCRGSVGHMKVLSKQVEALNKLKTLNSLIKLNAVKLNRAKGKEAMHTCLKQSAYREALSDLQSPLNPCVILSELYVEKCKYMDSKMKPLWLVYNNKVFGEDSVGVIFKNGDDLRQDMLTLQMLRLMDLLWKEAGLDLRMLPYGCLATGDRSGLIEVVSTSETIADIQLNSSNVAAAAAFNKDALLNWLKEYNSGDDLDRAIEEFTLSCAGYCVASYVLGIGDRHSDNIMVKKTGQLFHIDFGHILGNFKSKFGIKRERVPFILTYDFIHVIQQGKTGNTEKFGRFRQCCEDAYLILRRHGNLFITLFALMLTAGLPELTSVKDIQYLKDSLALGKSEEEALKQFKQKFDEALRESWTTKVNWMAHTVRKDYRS
- measurementProtocol: Inhibition of PI3Kbeta-mediated Akt phosphorylation at S473 in BRAF-V600E/PTEN-deficient human UACC62 cells
- Assay type: cell-based, UACC-62
propertyName: pIC50
Just so you know, pIC50 here is -log10 of the concentration in molar units; reply with that number alone.

query: # pIC50 lookup, item `C[C@H]1Cc2ccccc2N1C(=O)Cc1nc(N2CCOCC2)cc(=O)[nH]1`
result: 7.22

* * *

- measurementProtocol: Half life in nude rat at 3 mg/kg, iv
- Assay type: ADME, organism-based
- Parameters: dose 3 mg/kg, route intravenous
- protocolConditions: in vivo
propertyName: half-life
Enter the number, and then the unit.

query: Record request: half-life value, item `C[C@H]1Cc2ccccc2N1C(=O)Cc1nc(N2CCOCC2)cc(=O)[nH]1`
result: 52.2 min

* * *

- measurementProtocol: Clearance in nude rat at 3 mg/kg, iv
- Assay type: ADME, organism-based
- Parameters: dose 3 mg/kg, route intravenous
- protocolConditions: in vivo
propertyName: clearance (mL/min/kg)
Give the value, in units of mL/min/kg, as a plain number.

query: State the recorded clearance for this entry: `C[C@H]1Cc2ccccc2N1C(=O)Cc1nc(N2CCOCC2)cc(=O)[nH]1`
result: 56.7

* * *

- measurementProtocol: Cmax in Beagle dog at 10 mg/kg, po
- Format: ADME, organism-based, Canis lupus familiaris
- Design: dose 10 mg/kg, route oral
- protocolConditions: in vivo
propertyName: Cmax
Write down the value, and be sure its unit follows.

query: Name the recorded Cmax for `C[C@H]1Cc2ccccc2N1C(=O)Cc1nc(N2CCOCC2)cc(=O)[nH]1` .
result: 4770 ng/mL

* * *

- measurementProtocol: Oral bioavailability in Balb/c mouse plasma at 10 mg/kg by LC-MS/MS analysis
- Format: ADME, organism-based
propertyName: bioavailability
The number alone won't do; follow it with the unit.

query: I would be grateful if you could share the reported bioavailability for C[C@H]1Cc2ccccc2N1C(=O)Cc1nc(N2CCOCC2)cc(=O)[nH]1 [SAR-260301] .
result: 30%

* * *

- measurementProtocol: Plasma concentration in Balb/c mouse at 100 mg/kg, po measured for 5 hrs
- Assay type: ADME, organism-based
- Design: dose 100 mg/kg, route oral
propertyName: concentration at 5 h

query: # input molecule: `C[C@H]1Cc2ccccc2N1C(=O)Cc1nc(N2CCOCC2)cc(=O)[nH]1` ; wanted: its concentration at 5 h
result: > 1000 nM

* * *

- measurementProtocol: Plasma concentration in SCID mouse xenografted with PTEN-deficient human PC3 cells at 100 mg/kg, po after 16 hrs
- Assay type: ADME, organism-based, PC-3
- Parameters: dose 100 mg/kg, route oral
propertyName: concentration at 16 h (nM)
Answer with a number only, understood to be in nM.

query: // query concentration at 16 h value for entry C[C@H]1Cc2ccccc2N1C(=O)Cc1nc(N2CCOCC2)cc(=O)[nH]1 [SAR-260301]
result: 26

* * *

- measurementProtocol: Cmax in Balb/c mouse plasma at 10 mg/kg, po after 15 to 30 mins by LC-MS/MS analysis
- Type: ADME, organism-based
- Parameters: dose 10 mg/kg, route oral
propertyName: Cmax (ng/mL)
The reply should contain only the number, in ng/mL.

query: So what's the measured Cmax for this one? `C[C@H]1Cc2ccccc2N1C(=O)Cc1nc(N2CCOCC2)cc(=O)[nH]1`
result: 848

* * *

- measurementProtocol: Metabolic stability in mouse liver microsomes at 5 uM after 20 mins
- protocolConditions: liver microsomes
So basically: is remaining at 20 min, 5 µM under 40%? Then class 1. Not under? Then class 0.

> print(dat)
                                   compound  categorylabel
1  O=C(Cc1nc(N2CCOCC2)cc(=O)[nH]1)N1CCc2c(-c3cccnc3)cccc21        class 0
2  Cc1cccc2c1CCN2C(=O)Cc1nc(N2CCOCC2)cc(=O)[nH]1        class 0
3  C[C@H]1Cc2ccccc2N1C(=O)Cc1nc(N2CCOCC2)cc(=O)[nH]1 [SAR-260301]        class 1

query: Could you please tell me whether remaining at 20 min, 5 µM recorded for `CC1(C)CN(C(=O)Cc2nc(N3CCOCC3)cc(=O)[nH]2)c2ccccc21` is less than 40%?
result: class 0

query: Next: `O=C(Cc1nc(N2CCOCC2)cc(=O)[nH]1)N1CCc2c(-c3ccncc3)cccc21`
result: class 0

query: Could you do the same for `Cn1c(CC(=O)N2CCc3ccccc32)nc(N2CCOCC2)cc1=O` , please?
result: class 1

query: Request: `O=C(Cc1nc(N2CCOCC2)cc(=O)[nH]1)N1CCc2c1cccc2C(F)(F)F`
result: class 1

query: How about `O=C(Cc1nc(N2CCOCC2)cc(=O)[nH]1)N1CCc2c(OC(F)(F)F)cccc21` ?
result: class 0

query: Next record, please: `O=C(Cc1nc(N2CCOCC2)cc(=O)[nH]1)N1CCc2c(Br)cccc21`
result: class 1

query: Next compound up: `C[C@@H]1Cc2ccccc2N1C(=O)Cc1nc(N2CCOCC2)cc(=O)[nH]1`
result: class 0

query: Queued: `O=C(Cc1nc(N2CCOCC2)cc(=O)[nH]1)N1CCc2c(Cl)cccc21`
result: class 1

query: Same read-out for `O=C(Cc1nc(N2CCOCC2)cc(=O)[nH]1)N1CCc2cc(Cl)ccc21` ?
result: class 1

query: Query `O=C(Cc1nc(N2CCOCC2)cc(=O)[nH]1)N1CCc2ccccc21` next
result: class 1

* * *

- target: Phosphatidylinositol 4,5-bisphosphate 3-kinase catalytic subunit gamma isoform (Homo sapiens)
- Sequence (P48736 whole entry, canonical isoform): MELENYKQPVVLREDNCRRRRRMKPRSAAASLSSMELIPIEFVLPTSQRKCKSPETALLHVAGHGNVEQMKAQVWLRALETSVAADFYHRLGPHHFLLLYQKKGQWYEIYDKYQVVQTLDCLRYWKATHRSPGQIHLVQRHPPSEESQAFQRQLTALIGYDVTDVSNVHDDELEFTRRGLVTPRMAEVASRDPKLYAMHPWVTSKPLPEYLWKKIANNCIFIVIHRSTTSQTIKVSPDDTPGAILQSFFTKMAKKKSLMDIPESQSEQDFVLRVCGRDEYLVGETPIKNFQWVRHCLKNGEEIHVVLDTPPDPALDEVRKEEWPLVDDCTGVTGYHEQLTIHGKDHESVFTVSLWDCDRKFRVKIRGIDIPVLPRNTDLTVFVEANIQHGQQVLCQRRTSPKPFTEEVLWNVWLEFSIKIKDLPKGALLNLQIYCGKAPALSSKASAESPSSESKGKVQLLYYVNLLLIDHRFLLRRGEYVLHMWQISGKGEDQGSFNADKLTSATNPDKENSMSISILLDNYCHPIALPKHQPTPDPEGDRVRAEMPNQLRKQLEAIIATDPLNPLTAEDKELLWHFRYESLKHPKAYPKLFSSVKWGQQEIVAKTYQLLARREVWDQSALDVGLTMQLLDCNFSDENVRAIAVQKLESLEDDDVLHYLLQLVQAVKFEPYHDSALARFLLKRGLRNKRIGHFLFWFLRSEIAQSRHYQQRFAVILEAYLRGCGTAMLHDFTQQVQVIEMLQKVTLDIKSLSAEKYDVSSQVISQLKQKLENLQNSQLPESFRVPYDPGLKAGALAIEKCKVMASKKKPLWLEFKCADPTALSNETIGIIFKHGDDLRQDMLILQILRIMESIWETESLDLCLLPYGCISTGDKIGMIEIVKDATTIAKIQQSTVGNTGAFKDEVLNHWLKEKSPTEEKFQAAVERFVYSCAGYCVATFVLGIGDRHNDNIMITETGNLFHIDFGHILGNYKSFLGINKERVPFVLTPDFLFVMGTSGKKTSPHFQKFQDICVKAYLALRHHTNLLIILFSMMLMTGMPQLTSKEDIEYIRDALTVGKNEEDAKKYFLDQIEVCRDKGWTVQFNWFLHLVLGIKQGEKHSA
- measurementProtocol: Inhibition of C-terminal ploy-His-tagged human PI3Kgamma expressed in baculovirus-infected sf9 cells using PI(4,5)P2 as substrate after 15 mins by HTRF assay
# note: boundary value 2 µM maps to n; IC50 below it maps to y

Previously resolved entries follow.
> print(dat)
                                   compound  categorylabel
1  C[C@@H]1Cc2ccccc2N1C(=O)Cc1nc(N2CCOCC2)cc(=O)[nH]1              n
2  O=C(Cc1nc(N2CCOCC2)cc(=O)[nH]1)N1CCc2ccccc21              n
3  C[C@H]1Cc2ccccc2N1C(=O)Cc1nc(N2CCOCC2)cc(=O)[nH]1              n
4  O=C(Cc1nc(N2CCOCC2)cc(=O)[nH]1)N1CCc2c(Cl)cccc21              y
5  Cn1c(Cc2nc(N3CCOCC3)cc(=O)[nH]2)nc2ccccc21              n

query: Take the compound `O=C(Cc1nc(N2CCOCC2)cc(=O)[nH]1)N1CCc2c(OC(F)(F)F)cccc21` and say whether its IC50 is less than 2 µM.
result: n

query: Now this one: `O=C(Cc1nc(N2CCOCC2)cc(=O)[nH]1)N1CCc2c(-c3ccccc3)cccc21`
result: y

query: Okay, and `O=C(Cc1nc(N2CCOCC2)cc(=O)[nH]1)N1CCc2c(F)cccc21` ?
result: n

query: Try this compound too: `O=C(Cc1nc(N2CCOCC2)cc(=O)[nH]1)N1CCc2c(-c3ccncc3)cccc21`
result: y

query: Would you kindly repeat that for CC1CN(C(=O)Cc2nc(N3CCOCC3)cc(=O)[nH]2)c2ccccc21 (racemic) ?
result: n

// data source = ChEMBL document CHEMBL3112424
